Reference source for all entries: paper PMC9727064

- Tested on: human Liver-Chip (primary human hepatocytes)
- measurementNotes: Liver-Chip alanine transaminase (ALT) release in top channel effluent (ELISA)
- Type: cell-based
- testContext: expanded drug list; lowest concentration causing an increase in ALT release; donor 2
experimentalEndpoint: ALT Donor 2

molecule: CC(c1cc2ccccc2s1)N(O)C(N)=O (stereo not drawn) [Zileuton]
experimentalEndpoint: ALT Donor 2
recordedValue: > 300 unbound human Cmax multiplier
--
molecule: Nc1c2c(nc3ccccc13)CCCC2 [Tacrine]
experimentalEndpoint: ALT Donor 2
recordedValue: > 1000 unbound human Cmax multiplier
--
molecule: CCOC(=O)CN[C@@H](C(=O)N1CC[C@H]1C(=O)NCc1ccc(/C(N)=N\O)cc1)C1CCCCC1 [Ximelagatran]
experimentalEndpoint: ALT Donor 2
recordedValue: > 300 unbound human Cmax multiplier
--
molecule: CC(C(=O)O)c1ccc2oc(-c3ccc(Cl)cc3)nc2c1 (stereo not drawn) [Benoxaprofen]
experimentalEndpoint: ALT Donor 2
recordedValue: 100 unbound human Cmax multiplier
--
molecule: Cc1cn([C@H]2C=C[C@@H](CO)O2)c(=O)[nH]c1=O [Stavudine]
experimentalEndpoint: ALT Donor 2
recordedValue: > 300 unbound human Cmax multiplier

Entry CC(CCc1ccccc1)NCC(O)c1ccc(O)c(C(N)=O)c1 (stereo not drawn) [Labetalol] : reported ALT Donor 2 = ?
100 unbound human Cmax multiplier

----------
- System: human Liver-Chip
- measurementNotes: Liver-Chip DILI prediction: minimum toxic concentration and margin of safety (MOS)-like figure
- testContext: not corrected for protein binding; donors one and two
experimentalEndpoint: Liver-Chip toxicity determination, MOS-like figure against threshold value of 50

molecule: CC(C(=O)O)c1ccc2oc(-c3ccc(Cl)cc3)nc2c1 (centres unmarked)
recordedValue: hepatotoxic
--
molecule: C[C@H]1COc2c(N3CCN(C)CC3)c(F)cc3c(=O)c(C(=O)O)cn1c23
recordedValue: not detected
--
molecule: Nc1c2c(nc3ccccc13)CCCC2
recordedValue: not detected
--
molecule: CC(CCc1ccccc1)NCC(O)c1ccc(O)c(C(N)=O)c1 (centres unmarked)
recordedValue: hepatotoxic

----------
- Tested on: human Liver-Chip (hepatocyte layer)
- measurementNotes: Liver-Chip immunofluorescence imaging (caspase 3/7, TMRM, AdipoRed/LipidTOX)
- Assay type: cell-based
- testContext: day 7 post-drug administration, hepatocyte layer, top channel; donor three
experimentalEndpoint: Immunofluorescent findings, donor three (Supplementary Figure 3)

itemSmiles: Cc1cc2c(s1)Nc1ccccc1N=C2N1CCN(C)CC1
recordedValue: No findings
//
itemSmiles: C[C@H]1COc2c(N3CCN(C)CC3)c(F)cc3c(=O)c(C(=O)O)cn1c23
recordedValue: No findings
//
itemSmiles: COC(c1ccccc1)(c1ccccc1)[C@H](Oc1nc(C)cc(C)n1)C(=O)O
recordedValue: No findings

----------
- Test system: human Liver-Chip (hepatocytes and non-parenchymal cells)
- testContext: human
experimentalEndpoint: Morphology Donor 2

Reference set, count: 3
compound: CCOC(=O)CN[C@@H](C(=O)N1CC[C@H]1C(=O)NCc1ccc(/C(N)=N\O)cc1)C1CCCCC1
experimentalEndpoint: Morphology Donor 2
recordedValue: 300 unbound human Cmax multiplier
--
compound: CC(CCc1ccccc1)NCC(O)c1ccc(O)c(C(N)=O)c1 (stereo not shown)
experimentalEndpoint: Morphology Donor 2
recordedValue: 100 unbound human Cmax multiplier
--
compound: CC(C(=O)O)c1ccc2oc(-c3ccc(Cl)cc3)nc2c1 (stereo not shown)
experimentalEndpoint: Morphology Donor 2
recordedValue: 100 unbound human Cmax multiplier

Let's switch to this compound now.
I am curious: what Morphology Donor 2 value has been reported for CCc1ccc(CCOc2ccc(CC3SC(=O)NC3=O)cc2)nc1 (stereo not shown) ?
>300 multiples of the unbound human Cmax
